biological target: human APJ receptor (Homo sapiens (Human)); assay: [35S]GTPγS binding assay on membranes from CHO cells stably expressing human APJ receptor; details: membranes of CHO cells stably expressing human APJ receptor, read-out: Activity hAPJ SPA EC50 IP
Sequence (P35414 whole entry): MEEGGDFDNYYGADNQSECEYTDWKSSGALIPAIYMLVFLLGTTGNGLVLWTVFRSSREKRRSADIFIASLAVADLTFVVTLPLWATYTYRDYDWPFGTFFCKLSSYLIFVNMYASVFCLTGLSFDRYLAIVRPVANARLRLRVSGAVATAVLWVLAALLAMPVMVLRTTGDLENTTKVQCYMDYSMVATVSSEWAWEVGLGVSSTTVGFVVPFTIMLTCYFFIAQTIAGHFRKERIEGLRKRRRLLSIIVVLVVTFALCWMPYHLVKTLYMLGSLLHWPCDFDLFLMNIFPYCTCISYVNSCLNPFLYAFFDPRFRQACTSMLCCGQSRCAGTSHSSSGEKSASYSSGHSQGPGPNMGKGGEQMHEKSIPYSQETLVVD
Provide the recorded log10(EC50) for the entries that follow.
Values are log10 of EC50 in nM.

{"columns": ["molecule", "system", "log10(EC50)"],
 "data": [
  ["CC[C@H]([C@@H]1CCCCO1)n1c(NS(=O)(=O)[C@@H](C)[C@H](OC)c2ncc(C)cn2)nnc1-c1cccc(OC)n1 (single isomer, unassigned) [Example 332.0]", "human APJ receptor (Homo sapiens (Human))", -0.92],
  ["CC[C@@H](C)n1c(NS(=O)(=O)[C@@H](C)[C@H](OC)c2ncc(Cl)cn2)nnc1-c1cccc(OC)n1 (single isomer, unassigned) [Example 55.0]", "human APJ receptor (Homo sapiens (Human))", -0.40],
  ["COc1cccc(-c2nnc(NS(=O)(=O)[C@@H](C)[C@H](C)c3ncc(Cl)cn3)n2Cc2cc(C(F)(F)F)no2)n1 [Example 204.0]", "human APJ receptor (Homo sapiens (Human))", 1.32],
  ["COc1cccc(-c2nnc(NS(=O)(=O)[C@@H](C)[C@@H](OC(C)C)c3ncc(C)cn3)n2[C@H](c2conc2C)C2CC2)n1 (mixture of isomers) [Example 226.0]", "human APJ receptor (Homo sapiens (Human))", -0.06]
]}

Batch request: log10(EC50) per item, same order as input.
1. COc1cccc(-c2nnc(NS(=O)(=O)[C@@H](C)[C@@H](OC(C)C)c3ncc(C)cn3)n2Cc2ccon2)n1 [Example 261.0]
2. COc1cccc(-c2nnc(NS(=O)(=O)[C@@H](C)[C@H](OC)c3ncc(Cl)cn3)n2[C@@H](C)c2ccno2)n1 (single isomer, unassigned) [Example 212.0]
3. COc1cccc(-c2nnc(NS(=O)(=O)[C@@H](C)[C@@H](OC(C)C)c3ncc(C)cn3)n2[C@@H](C)c2ccon2)n1 (single isomer, unassigned) [Example 269.0]
4. COc1cccc(-c2nnc(NS(=O)(=O)[C@@H](C)[C@H](C)c3ncc(Cl)cn3)n2[C@H](c2conc2C)C2CC2)n1 (single isomer, unassigned) [Example 229.0]

1. 0.72
2. -0.07
3. 1.23
4. 0.08
